Cited source: patent US20220125051A1

Test system: Euphorbia heterophylla (EPHHL)
Assay: Post-emergence efficacy, Method A
Assay type: in vivo
Details: Euphorbia heterophylla, post-emergence, 312 h; Application rate 500 g/Ha; evaluated after 13 days; 100=total damage to plant, 0=no damage to plant; read-out: Control of weed species after post-emergence application, EPHHL
Description: Seeds of a variety of test species were sown in standard soil in pots. […] After 13 days the test was evaluated (100=total damage to plant; 0=no damage to plant). […]
Parameter pest or weed control at 500 g/ha: see the listing below.
Numbers only here, please. The scale is %.

O=C([O-])CC[n+]1ccc(-c2nccc(C(F)(F)F)n2)cn1 : 90
O=C(O)CC[n+]1ccc(-c2nccc(=O)[nH]2)cn1 : 20
COC(=O)CC[n+]1ccc(-c2ncccn2)cn1 [Compound A54, 2,2,2-trifluoroacetate] : 70
O=C(O)CC[n+]1ccc(-c2ccnc(C(F)(F)F)n2)cn1 : 90
O=S(=O)([O-])CC[n+]1ccc(-c2ncc(F)cn2)cn1 : 60
O=S(=O)([O-])CC[n+]1ccc(-c2ccc(Cl)cn2)cn1 : 50

Please provide the recorded pest or weed control at 500 g/ha for O=S(=O)([O-])CC[n+]1ccc(-c2cncc(C(F)(F)F)n2)cn1 , tested on Euphorbia heterophylla (EPHHL). 80

Notebook entry, Euphorbia heterophylla (EPHHL) assay: pest or weed control at 500 g/ha of CNC(=O)c1ccnc(-c2cc[n+](CCC(=O)[O-])nc2)n1 = ? 100

Look up pest or weed control at 500 g/ha with Euphorbia heterophylla (EPHHL) for this molecule: O=S(=O)([O-])CCC[n+]1ccc(-c2ccc(O)nn2)cn1 60

Notebook entry, Euphorbia heterophylla (EPHHL) assay: pest or weed control at 500 g/ha of O=S(=O)(O)CCC[n+]1ccc(-c2cnccn2)cn1 = ? 100

Requested read-out pest or weed control at 500 g/ha, target or system Euphorbia heterophylla (EPHHL), entry Cc1cnc(-c2cc[n+](CCC(=O)O)nc2)c(Cl)c1 20

Find the measured pest or weed control at 500 g/ha: item COc1cncc(-c2cc[n+](CCCS(=O)(=O)[O-])nc2)n1 , target or system Euphorbia heterophylla (EPHHL). 60

State its pest or weed control at 500 g/ha on Euphorbia heterophylla (EPHHL): CS(=O)(=O)c1cnc(-c2cc[n+](CCC(=O)[O-])nc2)nc1 60

Test system Euphorbia heterophylla (EPHHL); read-out pest or weed control at 500 g/ha; what value for CNC(=O)c1cnc(-c2cc[n+](CCC(=O)[O-])nc2)nc1 ? 40

---

tested on: Lolium perenne (LOLPE); experiment: Post-emergence efficacy, Method A; assay type: in vivo; conditions: Lolium perenne, post-emergence, 312 h, Application Rate 500 g/Ha; evaluated after 13 days; Method A; read-out: Control of weed species after post-emergence application, LOLPE (100=total damage to plant; 0=no damage to plant)
# reported pest or weed control at 500 g/ha; entries follow

Nc1cc(-c2cc[n+](CCS(=O)(=O)[O-])nc2)ncn1 [Compound A164] : 40%
Nc1cc(-c2cc[n+](CCC(=O)O)nc2)ccn1 [Compound A210] : 20%
N[C@@H](CC[n+]1ccc(-c2ncccn2)cn1)C(=O)O [Compound A201, 2,2,2-trifluoroacetate] : 30%
N#Cc1ccc(-c2cc[n+](CCC(=O)O)nc2)nc1 [Compound A176] : 40%
N#Cc1ccc(-c2cc[n+](CCS(=O)(=O)[O-])nc2)nc1 [Compound A169] : 50%
CO[N-]C(=O)C[n+]1ccc(-c2ncccn2)cn1 [Compound A219] : 70%
Nc1nccc(-c2cc[n+](CCC(=O)O)nc2)n1 [Compound A160] : 70%
O=C(O)CC[n+]1ccc(-c2ncc(CO)cn2)cn1 [Compound A162] : 90%

Okay, now this compound:
Look up pest or weed control at 500 g/ha for this compound: O=C(O)c1ccc(C[n+]2ccc(-c3ncccn3)cn2)cc1 [Compound A228] 0%
